Molecular target: tankyrase 2 (TNKS2) (Homo sapiens)
Construct: His6-tankyrase 2 (construct: 934-1166) (His6-TNKS2)
Sequence (Q9H2K2 934-1166): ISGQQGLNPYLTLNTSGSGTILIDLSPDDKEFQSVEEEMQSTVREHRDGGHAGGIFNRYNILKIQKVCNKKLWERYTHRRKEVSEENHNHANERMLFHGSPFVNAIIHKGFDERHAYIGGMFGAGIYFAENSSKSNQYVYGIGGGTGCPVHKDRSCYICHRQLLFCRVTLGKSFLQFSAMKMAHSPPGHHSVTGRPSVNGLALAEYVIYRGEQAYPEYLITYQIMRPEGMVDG
Experiment: μHTS-TNKS-IWR2 TR-FRET Binding Assay (Example 118), His6-TNKS2 substituted
Details: procedure in Example 118 with His6-TNKS2
Description: μHTS-TNKS-IWR2 TR-FRET Binding Assay (10 μL/well in BD1536-well plate, a single point) Reagents and Stock Solutions […] Transfer 3 μL/well of the above diluted compound solutions or compound dilution buffer to the above assay plate. […] Read the assay plate immediately at excitation wavelength of 330 nm and emission wavelength of […] in time resolved fluorescence mode. […]
I'd be grateful if you could share measured pIC50 for these entries.
Would you please state pIC50, meaning minus log10 of the concentration in mol/L, as a bare number?

Request the reported pIC50 associated with Cn1ncc2c(=O)[nH]c(N3CCN(c4ccc(F)c(C(F)(F)F)c4)CC3)nc21
6.52

Same for Cn1ncc2c(=O)[nH]c(-c3ccc(C(F)(F)F)nc3)cc21
6.98

Could you do the same for O=c1[nH]c(N2CCN(c3ccccc3F)CC2)cc2[nH]ncc12 , please?
6.75

* * *

target: Tankyrase 1 (TNKS1) (Homo sapiens, UniProt O95271); construct: His6-TNKS1, MW=28.2 KDa (construct: 1088-1327, 1266M); assay: μHTS-TNKS-IWR2 TR-FRET Binding Assay (Example 118), His6-TNKS1
Sequence (O95271 1088-1327): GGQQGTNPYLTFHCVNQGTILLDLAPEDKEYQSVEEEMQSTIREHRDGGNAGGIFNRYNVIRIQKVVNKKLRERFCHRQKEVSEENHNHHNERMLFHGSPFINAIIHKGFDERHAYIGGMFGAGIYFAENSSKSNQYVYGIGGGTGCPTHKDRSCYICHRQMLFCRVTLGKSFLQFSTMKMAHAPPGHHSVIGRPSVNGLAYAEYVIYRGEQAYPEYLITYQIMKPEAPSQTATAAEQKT
Could you please report measured pIC50 for the items listed next?
Scale note: pIC50 = -log10(concentration in M).

Can you look up the measured pIC50 of Cn1ncc2c(=O)[nH]c(N3CCN(c4ccc(S(C)(=O)=O)cc4F)CC3)nc21 for me?
7.26

Field entry: Cn1ncc2c(=O)[nH]c(N3CCN(c4c(Cl)cncc4Cl)CC3)nc21
7.54

Thanks! And Cn1ncc2c(=O)[nH]c(-c3ccc(C(F)(F)F)cc3)nc21 ?
7.60

What do we get for Cn1ncc2c(=O)[nH]c(N3CCN(c4ccc(F)cc4S(C)(=O)=O)CC3)nc21 ?
7.36

Next: Cn1ncc2c(=O)[nH]c(N3CCN(c4ccccc4C(F)(F)F)CC3)nc21
7.57

One more molecule: COCCOc1cc(F)c(N2CCN(c3cc4c(cnn4C)c(=O)[nH]3)CC2)c(F)c1
7.59

Same read-out for Cn1ncc2c(=O)[nH]c(-c3ccc(C(F)(F)F)nc3)cc21 ?
6.82

Follow-up item: COc1cccnc1N1CCN(c2nc3c(cnn3C)c(=O)[nH]2)CC1
7.33

Now the same for Cn1ncc2c(=O)[nH]c(N3CCN(c4ccc(F)c(C(F)(F)F)c4)CC3)nc21
6.48

Lookup Cn1ncc2c(=O)[nH]c(N3CCN(C4CCS(=O)(=O)C4)CC3)nc21 (stereo not drawn)
5.71

Repeat with Cn1ncc2c(=O)[nH]c(N3CCN(c4ccccc4F)CC3)nc21
7.57

What about O=c1[nH]c(N2CCN(c3ccccc3F)CC2)cc2[nH]ncc12 ?
6.98

Lookup Cn1ncc2c(=O)[nH]c(N3CCN(c4ccccc4C#N)CC3)cc21
6.99

Cn1ncc2c(=O)[nH]c(N3CCN(c4ccc(F)cc4F)CC3)nc21 , same question.
7.41

Next up: Cn1ncc2c(=O)[nH]c(N3CCC(c4ccc(C(F)(F)F)cc4)CC3)nc21
7.18

Proceed to Cn1ncc2c(=O)[nH]c(N3CCC(C#N)(c4ccccc4)CC3)nc21
7.57

Next entry: Cn1ncc2c(=O)[nH]c(N3CCN(c4ncccc4C#N)CC3)nc21
6.82

Then Cn1ncc2c(=O)[nH]c(-c3ccc(C(F)(F)F)cc3)cc21 ?
7.49

The reported numbers originate from patent US20130345215A1.
